# targetEntity: hAPJ (Homo sapiens, UniProt P35414)
# measurementNotes: hAPJ Calcium Flux Assay
# conditionDetails: Chem-5 APJ stable cells, FLIPR calcium flux; read-out: hAPJ Ca2+ Flux EC50
pEC50: −log10 of the molar value. Bridge positions count the residues as written; N and C are the ends. Square brackets hold non-standard residues; d marks the D form. Peptide text beside a SMILES is read from it. pGlu = O=C1CC[C@@H](C(=O)O)N1; d(hCys) = N[C@H](CCS)C(=O)O; Nle = CCCC[C@H](N)C(=O)O

| compound | pEC50 |
| --- | --- |
| CCCC[C@@H]1NC(=O)[C@@H]2CCCN2C(=O)CNC(=O)[C@H](CCCCN)NC(=O)[C@@H](NC(=O)[C@H](CO)NC(=O)[C@H](CC(C)C)NC(=O)[C@H](CCCNC(=N)N)NC(=O)[C@@H]2CCCN2C(=O)[C@H](CCCNC(=N)N)NC(=O)[C@@H]2CCC(=O)N2)CSSCC[C@H](C(=O)N[C@@H](Cc2ccccc2)C(=O)O)NC1=O [Example 4, pE-R-P-R-L-S-C*-K-G-P-Nle-(D-hC)*-F-OH] ([pGlu]RPRLSCKGP[Nle][d(hCys)]F-OH; disulfide 7-12) | 6.39 |

====

Listing of recorded half-life by entry.
# measurementNotes: in vitro
# conditionDetails: rat, plasma, Surrogate activity-based Plasma stability t½
Bridge positions count the residues as written; N and C are the ends. Square brackets hold non-standard residues; d marks the D form. Peptide text beside a SMILES is read from it. pGlu = O=C1CC[C@@H](C(=O)O)N1; d(hCys) = N[C@H](CCS)C(=O)O; hCys = N[C@@H](CCS)C(=O)O; Nle = CCCC[C@H](N)C(=O)O

| compound | half-life [h] |
| --- | --- |
| CCCC[C@@H]1NC(=O)[C@@H]2CCCN2C(=O)CNC(=O)[C@H](CCCCN)NC(=O)[C@@H](NC(=O)[C@H](CO)NC(=O)[C@H](CC(C)C)NC(=O)[C@H](CCCNC(=N)N)NC(=O)[C@@H]2CCCN2C(=O)[C@H](CCCNC(=N)N)NC(=O)[C@@H]2CCC(=O)N2)CCSSCC[C@H](C(=O)N[C@@H](Cc2ccccc2)C(=O)O)NC1=O [Example 6, pE-R-P-R-L-S-hC*-K-G-P-Nle-(D-hC)*-F-OH] ([pGlu]RPRLS[hCys]KGP[Nle][d(hCys)]F-OH; disulfide 7-12) | 0.208 |
| CCCC[C@@H]1NC(=O)[C@@H]2CCCN2C(=O)CNC(=O)[C@H](CCCCN)NC(=O)[C@H](NC(=O)[C@H](CO)NC(=O)[C@H](CC(C)C)NC(=O)[C@H](CCCNC(=N)N)NC(=O)[C@@H]2CCCN2C(=O)[C@H](CCCNC(=N)N)NC(=O)[C@@H]2CCC(=O)N2)CSSCC[C@H](C(=O)N[C@@H](Cc2ccccc2)C(=O)O)NC1=O [Example 5, pE-R-P-R-L-S-c*-K-G-P-Nle-(D-hC)*-F-OH] ([pGlu]RPRLS[dC]KGP[Nle][d(hCys)]F-OH; disulfide 7-12) | 23.9 |

====

# targetEntity: hAPJ (Homo sapiens, UniProt P35414)
# measurementNotes: hAPJ Calcium Flux Assay
# conditionDetails: Chem-5 APJ stable cells, FLIPR calcium flux; read-out: hAPJ Ca2+ Flux EC50
pEC50: −log10 of the molar value. Bridge positions count the residues as written; N and C are the ends. Square brackets hold non-standard residues; d marks the D form. Peptide text beside a SMILES is read from it. pGlu = O=C1CC[C@@H](C(=O)O)N1; d(hCys) = N[C@H](CCS)C(=O)O; Nle = CCCC[C@H](N)C(=O)O

| compound | pEC50 |
| --- | --- |
| CCCC[C@@H]1NC(=O)[C@@H]2CCCN2C(=O)CNC(=O)[C@H](CCCCN)NC(=O)[C@H](NC(=O)[C@H](CO)NC(=O)[C@H](CC(C)C)NC(=O)[C@H](CCCNC(=N)N)NC(=O)[C@@H]2CCCN2C(=O)[C@H](CCCNC(=N)N)NC(=O)[C@@H]2CCC(=O)N2)CSSCC[C@H](C(=O)N[C@@H](Cc2ccccc2)C(=O)O)NC1=O [Example 5, pE-R-P-R-L-S-c*-K-G-P-Nle-(D-hC)*-F-OH] ([pGlu]RPRLS[dC]KGP[Nle][d(hCys)]F-OH; disulfide 7-12) | 6.01 |

====

# targetEntity: hAPJ (Homo sapiens)
# measurementNotes: hAPJ Calcium Flux Assay
# conditionDetails: Chem-5 APJ stable cells, FLIPR calcium flux; read-out: hAPJ Ca2+ Flux EC50
pEC50: −log10 of the molar value. Bridge positions count the residues as written; N and C are the ends. Square brackets hold non-standard residues; d marks the D form. Peptide text beside a SMILES is read from it. pGlu = O=C1CC[C@@H](C(=O)O)N1; Nle = CCCC[C@H](N)C(=O)O; Aib = CC(C)(N)C(=O)O
pEC50 by entry:

| compound | pEC50 |
| --- | --- |
| CCCC[C@@H]1NC(=O)[C@@H]2CCCN2C(=O)[C@@H](NC(=O)[C@H](CCCCN)NC(=O)C(C)(C)NC(=O)[C@@H](C)NC(=O)[C@H](CC(C)C)NC(=O)[C@H](CCCNC(=N)N)NC(=O)[C@@H]2CCCN2C(=O)[C@H](CCCNC(=N)N)NC(=O)[C@@H]2CCC(=O)N2)CSSC[C@@H](C(=O)N[C@H](Cc2ccccc2)C(=O)O)NC1=O [Example 19, pE-R-P-R-L-a-Aib-K-C*-P-Nle-C*-f-OH] ([pGlu]RPRL[dA][Aib]KCP[Nle]C[dF]-OH; disulfide 9-12) | 7.14 |
| CCCC[C@@H]1NC(=O)[C@@H]2CCCN2C(=O)[C@@H](NC(=O)[C@H](CCCCN)NC(=O)[C@H](Cc2c[nH]cn2)NC(=O)[C@@H](C)NC(=O)[C@H](CC(C)C)NC(=O)[C@H](CCCNC(=N)N)NC(=O)[C@@H]2CCCN2C(=O)[C@H](CCCNC(=N)N)NC(=O)[C@@H]2CCC(=O)N2)CSSC[C@@H](C(=O)N[C@H](Cc2ccccc2)C(=O)O)NC1=O [Example 17, pE-R-P-R-L-a-H-K-C*-P-Nle-C*-f-OH] ([pGlu]RPRL[dA]HKCP[Nle]C[dF]-OH; disulfide 9-12) | 8.72 |

====

# measurementNotes: in vitro
# conditionDetails: rat, plasma, Surrogate activity-based Plasma stability t½
Bridge positions count the residues as written; N and C are the ends. Square brackets hold non-standard residues; d marks the D form. Peptide text beside a SMILES is read from it. pGlu = O=C1CC[C@@H](C(=O)O)N1; Nle = CCCC[C@H](N)C(=O)O; Aib = CC(C)(N)C(=O)O; Inp = O=C(O)C1CCNCC1

| compound | half-life, h |
| --- | --- |
| CCCC[C@@H]1NC(=O)[C@@H]2CCCN2C(=O)[C@@H](NC(=O)[C@H](CCCCN)NC(=O)C(C)(C)NC(=O)[C@@H](C)NC(=O)[C@H](CC(C)C)NC(=O)[C@H](CCCNC(=N)N)NC(=O)[C@@H]2CCCN2C(=O)[C@H](CCCNC(=N)N)NC(=O)[C@@H]2CCC(=O)N2)CSSC[C@@H](C(=O)N[C@H](Cc2ccccc2)C(=O)O)NC1=O [Example 19, pE-R-P-R-L-a-Aib-K-C*-P-Nle-C*-f-OH] ([pGlu]RPRL[dA][Aib]KCP[Nle]C[dF]-OH; disulfide 9-12) | 36.4 |
| CCCC[C@@H]1NC(=O)[C@@H]2CCCN2C(=O)[C@@H](NC(=O)[C@H](CCCCN)NC(=O)[C@H](Cc2c[nH]cn2)NC(=O)[C@@H](C)NC(=O)[C@H](CC(C)C)NC(=O)[C@H](CCCNC(=N)N)NC(=O)[C@@H]2CCCN2C(=O)[C@H](CCCNC(=N)N)NC(=O)C2CCNCC2)CSSC[C@@H](C(=O)N[C@H](Cc2ccccc2)C(=O)O)NC1=O [Example 18] (H-[Inp]RPRL[dA]HKCP[Nle]C[dF]-OH; disulfide 9-12) | 16.5 |

====

# targetEntity: hAPJ (Homo sapiens)
# Sequence (P35414 1-380): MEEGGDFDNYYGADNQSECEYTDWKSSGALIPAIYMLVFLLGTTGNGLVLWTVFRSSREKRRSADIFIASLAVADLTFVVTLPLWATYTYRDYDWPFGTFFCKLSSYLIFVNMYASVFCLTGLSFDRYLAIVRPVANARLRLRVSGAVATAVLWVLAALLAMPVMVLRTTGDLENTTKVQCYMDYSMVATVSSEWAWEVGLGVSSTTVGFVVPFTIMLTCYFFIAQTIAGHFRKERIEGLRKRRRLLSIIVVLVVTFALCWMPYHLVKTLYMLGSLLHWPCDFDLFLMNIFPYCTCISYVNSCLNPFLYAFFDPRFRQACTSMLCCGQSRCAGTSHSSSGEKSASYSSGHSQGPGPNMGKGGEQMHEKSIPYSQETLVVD
# measurementNotes: hAPJ Calcium Flux Assay
# conditionDetails: Chem-5 APJ stable cells, FLIPR calcium flux; read-out: hAPJ Ca2+ Flux EC50
Bridge positions count the residues as written; N and C are the ends. Square brackets hold non-standard residues; d marks the D form. Peptide text beside a SMILES is read from it. pGlu = O=C1CC[C@@H](C(=O)O)N1; d(hCys) = N[C@H](CCS)C(=O)O; hCys = N[C@@H](CCS)C(=O)O; Nle = CCCC[C@H](N)C(=O)O; Inp = O=C(O)C1CCNCC1

| compound | EC50, µM |
| --- | --- |
| CCCC[C@@H]1NC(=O)[C@@H]2CCCN2C(=O)[C@@H](NC(=O)[C@H](CCCCN)NC(=O)[C@H](Cc2c[nH]cn2)NC(=O)[C@@H](C)NC(=O)[C@H](CC(C)C)NC(=O)[C@H](CCCNC(=N)N)NC(=O)[C@@H]2CCCN2C(=O)[C@H](CCCNC(=N)N)NC(=O)C2CCNCC2)CSSC[C@@H](C(=O)N[C@H](Cc2ccccc2)C(=O)O)NC1=O [Example 18] (H-[Inp]RPRL[dA]HKCP[Nle]C[dF]-OH; disulfide 9-12) | 0.0023 |
| CCCC[C@@H]1NC(=O)[C@@H]2CCCN2C(=O)CNC(=O)[C@H](CCCCN)NC(=O)[C@@H](NC(=O)[C@H](CO)NC(=O)[C@H](CC(C)C)NC(=O)[C@H](CCCNC(=N)N)NC(=O)[C@@H]2CCCN2C(=O)[C@H](CCCNC(=N)N)NC(=O)[C@@H]2CCC(=O)N2)CCSSCC[C@H](C(=O)N[C@@H](Cc2ccccc2)C(=O)O)NC1=O [Example 6, pE-R-P-R-L-S-hC*-K-G-P-Nle-(D-hC)*-F-OH] ([pGlu]RPRLS[hCys]KGP[Nle][d(hCys)]F-OH; disulfide 7-12) | 0.0928 |
